Measured half-life, listed per entry.
assay: Half life in rat serum by HPLC analysis; format: ADME, cell-free
Bridge positions count the residues as written; N and C are the ends. Square brackets hold non-standard residues; d marks the D form. Peptide text beside a SMILES is read from it. * marks the point of attachment. X1 = CC(=O)N(C(=O)CCCCCN)[C@@H](C)C(=O)*; S5 = C=CCCC[C@](C)(N)C(=O)O; Sar = CNCC(=O)O
Enter your answer as a number in h; do not include the unit.

See these solved cases before continuing.
compound="CC[C@H](C)[C@H](NC(=O)[C@H](Cc1ccc(O)cc1)NC(=O)[C@H](Cc1cnc[nH]1)NC(=O)[C@H](CCCNC(=N)N)NC(=O)[C@H](C)N(C(C)=O)C(=O)CCCCCN)C(=O)N[C@@H](CC(N)=O)C(=O)N[C@@H](CC(C)C)C(=O)N[C@H](C(=O)N[C@H](C(=O)N[C@@H](CCCNC(=N)N)C(=O)N[C@@H](CCC(N)=O)C(=O)N[C@@H](CCCNC(=N)N)C(=O)N[C@@H](Cc1ccc(O)cc1)C(N)=O)[C@@H](C)O)[C@@H](C)CC (X1-RHYINLITRQRY-NH2)" readout_units=h reading=0.57
compound="CNCC(=O)N[C@@H](Cc1c[nH]c2ccccc12)C(=O)N[C@H](C(=O)N[C@@H](CC(C)C)C(=O)N[C@@H](CC(N)=O)C(=O)N[C@@H](CO)C(=O)N[C@@]1(C)CCC/C=C/CCC[C@@](C)(C(=O)NCC(=O)N2CCC[C@H]2C(=O)N[C@@H](CCCCN)C(=O)N[C@@H](CCCCN)C(=O)N[C@@H](CCCCN)C(=O)N[C@@H](CCCCN)C(N)=O)NC(=O)[C@H](CC(C)C)NC(=O)[C@H](Cc2ccc(O)cc2)NC(=O)CNC1=O)[C@@H](C)O (H-[Sar]WTLNS[S5]GYL[S5]GPKKKK-NH2; staple (E) 7-11)" readout_units=h reading=6.4

Give the reported value of half-life for this record: CC(=O)N[C@@H](C)C(=O)N[C@@H](CCCNC(=N)N)C(=O)N[C@@H](Cc1cnc[nH]1)C(=O)N[C@@H](Cc1ccc(O)cc1)C(=O)N[C@@]1(C)CCC/C=C/CCC[C@@](C)(C(=O)N[C@@H](CCCNC(=N)N)C(=O)N[C@@H](CCC(N)=O)C(=O)N[C@@H](CCCNC(=N)N)C(=O)N[C@@H](Cc2ccc(O)cc2)C(N)=O)NC(=O)[C@H](CC(C)C)NC(=O)[C@H](CC(C)C)NC(=O)[C@H](CC(N)=O)NC1=O (Ac-ARHY[S5]NLL[S5]RQRY-NH2; staple (E) 5-9)
2.7

Give the reported value of half-life for this record: CC(C)C[C@H](NC(=O)[C@H](CC(C)C)NC(=O)[C@H](Cc1ccc(O)cc1)NC(=O)CNC(=O)[C@H](C)NC(=O)[C@H](CO)NC(=O)[C@H](CC(N)=O)NC(=O)[C@H](CC(C)C)NC(=O)[C@@H](NC(=O)[C@H](Cc1c[nH]c2ccccc12)NC(=O)CN)[C@@H](C)O)C(=O)NCC(=O)N1CCC[C@H]1C(=O)N[C@@H](Cc1cnc[nH]1)C(=O)N[C@@H](C)C(=O)N[C@H](C(N)=O)C(C)C
0.13

====

experiment: n-octanol-water partition coefficient, log D of the compound by HPLC capacity factor method; format: physicochemical
Bridge positions count the residues as written; N and C are the ends. Square brackets hold non-standard residues; d marks the D form. Peptide text beside a SMILES is read from it. S5 = C=CCCC[C@](C)(N)C(=O)O; Sar = CNCC(=O)O
endpoint.label: chromatographic logD

Give the reported value of chromatographic logD for this record: CNCC(=O)N[C@@H](Cc1c[nH]c2ccccc12)C(=O)N[C@H](C(=O)N[C@@H](CC(C)C)C(=O)N[C@@H](CC(N)=O)C(=O)N[C@@H](CO)C(=O)N[C@@]1(C)CCC/C=C/CCC[C@@](C)(C(=O)NCC(=O)N2CCC[C@H]2C(=O)N[C@@H](CCCCN)C(=O)N[C@@H](CCCCN)C(=O)N[C@@H](CCCCN)C(=O)N[C@@H](CCCCN)C(N)=O)NC(=O)[C@H](CC(C)C)NC(=O)[C@H](Cc2ccc(O)cc2)NC(=O)CNC1=O)[C@@H](C)O (H-[Sar]WTLNS[S5]GYL[S5]GPKKKK-NH2; staple (E) 7-11)
0.71
